The reported numbers originate from patent US7718652B2.

Recorded IC50 values for a group of compounds are listed next.
Tested System: human hNET (Homo sapiens)
Construct: expressed in transfected cells; host or cells: MDCK-Net6 (MDCK cells stably transfected)
Sequence (P23975 whole entry): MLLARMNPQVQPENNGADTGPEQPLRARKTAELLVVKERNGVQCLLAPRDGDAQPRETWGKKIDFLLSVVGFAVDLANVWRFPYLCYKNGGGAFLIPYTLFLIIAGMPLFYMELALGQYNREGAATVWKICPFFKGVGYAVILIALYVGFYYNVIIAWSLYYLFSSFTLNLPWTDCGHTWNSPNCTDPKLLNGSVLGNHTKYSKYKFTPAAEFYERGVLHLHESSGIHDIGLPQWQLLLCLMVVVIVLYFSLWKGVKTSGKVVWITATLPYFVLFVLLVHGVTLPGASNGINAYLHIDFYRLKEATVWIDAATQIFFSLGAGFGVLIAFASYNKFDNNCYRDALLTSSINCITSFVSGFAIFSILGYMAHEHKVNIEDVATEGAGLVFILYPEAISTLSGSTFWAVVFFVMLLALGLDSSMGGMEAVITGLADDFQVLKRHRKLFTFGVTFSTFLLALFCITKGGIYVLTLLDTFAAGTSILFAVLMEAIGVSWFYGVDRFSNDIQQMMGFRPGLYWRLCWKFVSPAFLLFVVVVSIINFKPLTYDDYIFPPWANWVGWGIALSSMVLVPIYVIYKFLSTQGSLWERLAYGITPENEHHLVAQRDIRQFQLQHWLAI
Measurement Description: Functional Norepinephrine (NE) Uptake Assay in MDCK-Net6 cells
Format: cell-based
Cond: MDCK-Net6 cells stably transfected with human hNET; 3H norepinephrine 16 nM
Counter-ions that a name gives are not always drawn.

Compound | IC50, nM
CNCCCCN1Cc2cc(F)ccc2N(c2ccccc2F)S1(=O)=O | 30
CNCCCN1Cc2ccccc2N(c2cccc(F)c2)S1(=O)=O [Example 2, hydrochloride] | 628
O=S1(=O)N(CCCCNC2CC2)Cc2cc(F)ccc2N1c1ccccc1F | 177
CNCCN1Cc2cc(F)ccc2N(c2ccccc2F)S1(=O)=O | 1410
